# System: HCT-8
# experimental protocol: Cytotoxicity against human HCT8 cells after 2 days
# Assay type: functional
# particulars: HCT-8, 48 h, read-out: ED50 (the source's name)
Reported log10(EC50) values for the following molecules.
log10 EC50, µg/mL

Record excerpt, results attached:
COc1cc2c(c(OC)c1OC)-c1ccc(SC)c(=O)cc1[C@@H](N(C)C)CC2.O=C(O)CCC(=O)O = -1.66
CCN[C@H]1CCc2cc(OC)c(OC)c(OC)c2-c2ccc(SC)c(=O)cc21 = -1.51
COc1cc2c(c(OC)c1OC)-c1ccc(SC)c(=O)cc1[C@@H](N(C)S(=O)(=O)c1ccccc1[N+](=O)[O-])CC2 = -0.92
CCN([C@H]1CCc2cc(OC)c(OC)c(OC)c2-c2ccc(SC)c(=O)cc21)S(=O)(=O)c1ccccc1[N+](=O)[O-] = -0.28
COc1cc2c(c(OC)c1OC)-c1ccc(OC)c(=O)cc1[C@@H](NC(C)=O)CC2 [COLCHICINE] = -1.27

Lab note: need log10(EC50) for `COc1cc2c(c(OC)c1OC)-c1ccc(SC)c(=O)cc1[C@@H](NS(=O)(=O)c1ccccc1[N+](=O)[O-])CC2` on HCT-8, anyone have it?
-1.57

Lab note: need log10(EC50) for `CCN(CC)[C@H]1CCc2cc(OC)c(OC)c(OC)c2-c2ccc(SC)c(=O)cc21.O=C(O)CCC(=O)O` on HCT-8, anyone have it?
-0.96

###

# Tested on: A549
# experimental protocol: Cytotoxicity against human A549 cells after 2 days
# Assay type: functional
# particulars: A549, 48 h, read-out: ED50 (the source's name)
readout name: EC50
Answer as a quantity: numeral, then unit.

Record excerpt, results attached:
CCN[C@H]1CCc2cc(OC)c(OC)c(OC)c2-c2ccc(SC)c(=O)cc21 = 0.0193 µg/mL
COc1cc2c(c(OC)c1O)-c1ccc(SC)c(=O)cc1[C@@H](N(C)S(=O)(=O)c1ccccc1[N+](=O)[O-])CC2 = 1.68 µg/mL
COc1cc2c(c(OC)c1OC)-c1ccc(SC)c(=O)cc1[C@@H](N(C)S(=O)(=O)c1ccccc1[N+](=O)[O-])CC2 = 0.129 µg/mL

Item under review: `CCCN([C@H]1CCc2cc(OC)c(OC)c(OC)c2-c2ccc(SC)c(=O)cc21)S(=O)(=O)c1ccccc1[N+](=O)[O-]` . Reported EC50?
1.63 µg/mL

Item under review: `CN[C@H]1CCc2cc(OC)c(O)c(OC)c2-c2ccc(SC)c(=O)cc21` . Reported EC50?
1.55 µg/mL

Item under review: `COc1cc2c(c(OC)c1OC)-c1ccc(SC)c(=O)cc1[C@@H](N(C)C)CC2.O=C(O)CCC(=O)O` . Reported EC50?
0.19 µg/mL

Item under review: `CN[C@H]1CCc2cc(OC)c(O)c(OC)c2-c2ccc(SC)c(=O)cc21.O=C(O)CCC(=O)O` . Reported EC50?
1.26 µg/mL

Item under review: `CN[C@H]1CCc2cc(OC)c(OP(=O)(O)O)c(OC)c2-c2ccc(SC)c(=O)cc21` . Reported EC50?
0.533 µg/mL

###

# Test system: SK-BR-3
# experimental protocol: Cytotoxicity against human SKBR3 cells after 2 days
# Type: functional
# particulars: SK-BR-3, 48 h, read-out: ED50 (the source's name)
Reported EC50 values for the following molecules.
Field: numeric (µg/mL). Do not append units.

CN[C@H]1CCc2cc(OC)c(OP(=O)(O)O)c(OC)c2-c2ccc(SC)c(=O)cc21 = 0.137
CCN([C@H]1CCc2cc(OC)c(OC)c(OC)c2-c2ccc(SC)c(=O)cc21)S(=O)(=O)c1ccccc1[N+](=O)[O-] = 0.148
CN[C@H]1CCc2cc(OC)c(O)c(OC)c2-c2ccc(SC)c(=O)cc21 = 0.487
CN[C@H]1CCc2cc(OC)c(O)c(OC)c2-c2ccc(SC)c(=O)cc21.O=C(O)CCC(=O)O = 0.39
COc1cc2c(c(OC)c1OC)-c1ccc(SC)c(=O)cc1[C@@H](N(C)C)CC2.O=C(O)CCC(=O)O = 0.0129

Let's switch to this molecule now.
Item under review: `COc1cc2c(c(OC)c1OC)-c1ccc(OC)c(=O)cc1[C@@H](NC(C)=O)CC2` . Reported EC50?
0.0027

###

# experimental protocol: Inhibition of tubulin assembly
Reported log10 of IC50 values for the following compounds.
log10 IC50, µM

CN[C@H]1CCc2cc(OC)c(O)c(OC)c2-c2ccc(SC)c(=O)cc21.O=C(O)CCC(=O)O = 1.36
CCN([C@H]1CCc2cc(OC)c(OC)c(OC)c2-c2ccc(SC)c(=O)cc21)S(=O)(=O)c1ccccc1[N+](=O)[O-] = 0.62

Item under review: `COc1cc2c(c(OC)c1OC)-c1ccc(SC)c(=O)cc1[C@@H](NS(=O)(=O)c1ccccc1[N+](=O)[O-])CC2` . Reported log10 of IC50?
0.04

Item under review: `COc1cc2c(c(OC)c1OC)-c1ccc(SC)c(=O)cc1[C@@H](N(C)S(=O)(=O)c1ccccc1[N+](=O)[O-])CC2` . Reported log10 of IC50?
-0.04

Item under review: `COc1cc2c(c(OC)c1O)-c1ccc(SC)c(=O)cc1[C@@H](N(C)S(=O)(=O)c1ccccc1[N+](=O)[O-])CC2` . Reported log10 of IC50?
0.56

Item under review: `CCN(CC)[C@H]1CCc2cc(OC)c(OC)c(OC)c2-c2ccc(SC)c(=O)cc21.O=C(O)CCC(=O)O` . Reported log10 of IC50?
1.20

Item under review: `CCN[C@H]1CCc2cc(OC)c(OC)c(OC)c2-c2ccc(SC)c(=O)cc21` . Reported log10 of IC50?
0.73

Item under review: `COc1cc2c(c(OC)c1OC)-c1ccc(SC)c(=O)cc1[C@@H](N(C)C)CC2.O=C(O)CCC(=O)O` . Reported log10 of IC50?
0.56

###

# Test system: A549
# experimental protocol: Cytotoxicity against human A549 cells after 2 days
# Assay type: functional
# particulars: A549, 48 h, read-out: ED50 (the source's name)
readout name: EC50 (µg/mL)
Field: numeric (µg/mL). Do not append units.

Record excerpt, results attached:
CCN(CC)[C@H]1CCc2cc(OC)c(OC)c(OC)c2-c2ccc(SC)c(=O)cc21.O=C(O)CCC(=O)O = 0.181
CCN([C@H]1CCc2cc(OC)c(OC)c(OC)c2-c2ccc(SC)c(=O)cc21)S(=O)(=O)c1ccccc1[N+](=O)[O-] = 0.212
COc1cc2c(c(OC)c1OC)-c1ccc(SC)c(=O)cc1[C@@H](NS(=O)(=O)c1ccccc1[N+](=O)[O-])CC2 = 0.0209

Let's switch to this compound now.
Item under review: `COc1cc2c(c(OC)c1OC)-c1ccc(OC)c(=O)cc1[C@@H](NC(C)=O)CC2` . Reported EC50?
0.0199

###

Reported EC50 values for the following molecules.
# experimental protocol: Cytotoxicity against human KBVIN cells expressing p-glycoprotein after 2 days
# Format: functional
# particulars: 48 h, read-out: ED50 (the source's name)
Field: numeric (µg/mL). Do not append units.

CCN([C@H]1CCc2cc(OC)c(OC)c(OC)c2-c2ccc(SC)c(=O)cc21)S(=O)(=O)c1ccccc1[N+](=O)[O-] = 0.174
COc1cc2c(c(OC)c1OC)-c1ccc(SC)c(=O)cc1[C@@H](N(C)C)CC2.O=C(O)CCC(=O)O = 0.125
CCN(CC)[C@H]1CCc2cc(OC)c(OC)c(OC)c2-c2ccc(SC)c(=O)cc21.O=C(O)CCC(=O)O = 0.151

Item under review: `COc1cc2c(c(OC)c1OC)-c1ccc(OC)c(=O)cc1[C@@H](NC(C)=O)CC2` . Reported EC50?
0.158

###

# System: KB
# experimental protocol: Cytotoxicity against human KB cells after 2 days
# Type: functional
# particulars: 48 h, read-out: ED50 (the source's name)
readout name: EC50
Answer as a quantity: numeral, then unit.

Record excerpt, results attached:
CCN(CC)[C@H]1CCc2cc(OC)c(OC)c(OC)c2-c2ccc(SC)c(=O)cc21.O=C(O)CCC(=O)O = 0.063 µg/mL
COc1cc2c(c(OC)c1OC)-c1ccc(SC)c(=O)cc1[C@@H](NS(=O)(=O)c1ccccc1[N+](=O)[O-])CC2 = 0.01 µg/mL
COc1cc2c(c(OC)c1OC)-c1ccc(SC)c(=O)cc1[C@@H](N(C)S(=O)(=O)c1ccccc1[N+](=O)[O-])CC2 = 0.035 µg/mL
CCN[C@H]1CCc2cc(OC)c(OC)c(OC)c2-c2ccc(SC)c(=O)cc21 = 0.02 µg/mL
CN[C@H]1CCc2cc(OC)c(O)c(OC)c2-c2ccc(SC)c(=O)cc21.O=C(O)CCC(=O)O = 0.35 µg/mL
COc1cc2c(c(OC)c1O)-c1ccc(SC)c(=O)cc1[C@@H](N(C)S(=O)(=O)c1ccccc1[N+](=O)[O-])CC2 = 0.72 µg/mL
CN[C@H]1CCc2cc(OC)c(OP(=O)(O)O)c(OC)c2-c2ccc(SC)c(=O)cc21 = 0.25 µg/mL

Item under review: `CN[C@H]1CCc2cc(OC)c(O)c(OC)c2-c2ccc(SC)c(=O)cc21` . Reported EC50?
0.55 µg/mL
